# target of assay: UniProt:P08246
# Sequence (P08246 30-267): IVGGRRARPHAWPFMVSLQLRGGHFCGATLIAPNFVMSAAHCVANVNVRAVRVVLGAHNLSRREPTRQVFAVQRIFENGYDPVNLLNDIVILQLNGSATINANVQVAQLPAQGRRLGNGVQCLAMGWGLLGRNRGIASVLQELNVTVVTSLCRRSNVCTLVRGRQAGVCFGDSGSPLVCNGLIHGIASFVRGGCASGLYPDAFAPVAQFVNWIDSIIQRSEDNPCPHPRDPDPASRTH
# experiment: Inactivation of human leukocyte elastase: kon measured, Ki* = koff/kon calculated
# Format: biochemical
# setup conditions: Elastase; rate of inactivation kon = kobs/[I]; value is kon x 10^-3; read-out: 10^-3 x kon
Category key, based on recorded kinact/KI: Low = under 2000 M⁻¹ s⁻¹, Mid = from 2000 M⁻¹ s⁻¹ up to 9000 M⁻¹ s⁻¹, High = 9000 M⁻¹ s⁻¹ and over

Below are worked cases with known answers.
INSERT INTO results (molecule, target_of_assay, class_assignment) VALUES
  ('O=C1c2ccccc2S(=O)(=O)N1Cn1nnn(-c2cccnc2)c1=S [Example 30R]', 'UniProt:P08246', 'Mid'),
  ('Cn1nnc(SCN2C(=O)c3ccccc3S2(=O)=O)n1 [Example 30X]', 'UniProt:P08246', 'Low'),
  ('O=C1c2ccccc2S(=O)(=O)N1CSc1nncn1-c1ccccc1 [Example 30I]', 'UniProt:P08246', 'Low');

Task: Could you place O=C1c2ccccc2S(=O)(=O)N1CSc1nc2ccc([N+](=O)[O-])cc2o1 [Example 30BE] in its proper category? Many thanks.
Result: Mid

Task: Assign a category based on measured kinact/KI for CC(C)c1cccc2c1C(=O)N(CSc1nnnn1CC(=O)N(C)C)S2(=O)=O [Example 30AW] and give only the class name.
Result: High

Task: Assign a category based on measured kinact/KI for O=C1c2ccccc2S(=O)(=O)N1CSc1nnnn1CCN1CCOCC1 [Example 30BG] and give only the class name.
Result: Low

Task: Band for the recorded kinact/KI of CCOc1cccc2c1C(=O)N(CSc1nnnn1CC(=O)N(C)C)S2(=O)=O [Example 30AX] ?
Result: Mid

Task: Any idea which band O=C1c2c(Cl)cccc2S(=O)(=O)N1CCl [Example 3, 2-chloromethyl-4-chlorosaccharin] is in?
Result: High

Task: Exercise: read the entry O=C1C=Cc2ccc(OCN3C(=O)c4ccccc4S3(=O)=O)c3cccc1c23 [Example 30G] and state which class it falls under.
Result: High

----------
# target of assay: α-Chymotrypsin (Bos taurus)
# experiment: Inactivation of α-chymotrypsin: kon measured, Ki* = koff/kon calculated
# Type: biochemical
# setup conditions: rate of inactivation kon = kobs/[I], value is kon x 10^-3
Catalogue of compounds with associated kinact/KI

Task: I'd like to know its kinact/KI. The compound in question is O=C1c2ccccc2S(=O)(=O)N1C[S+]([O-])c1nnnn1-c1ccccc1 (stereo not drawn)
Result: 7000 M⁻¹ s⁻¹

Task: Look up kinact/KI: "CC(=O)OCN1C(=O)c2c(Cl)cccc2S1(=O)=O"
Result: 2900 M⁻¹ s⁻¹

Task: Which kinact/KI is reported for this compound? "O=C1c2c(Cl)cccc2S(=O)(=O)N1CCl"
Result: 5800 M⁻¹ s⁻¹
